SYSTEM_TESTED: TRPV4 (Homo sapiens)
Sequence (Q9HBA0 whole entry): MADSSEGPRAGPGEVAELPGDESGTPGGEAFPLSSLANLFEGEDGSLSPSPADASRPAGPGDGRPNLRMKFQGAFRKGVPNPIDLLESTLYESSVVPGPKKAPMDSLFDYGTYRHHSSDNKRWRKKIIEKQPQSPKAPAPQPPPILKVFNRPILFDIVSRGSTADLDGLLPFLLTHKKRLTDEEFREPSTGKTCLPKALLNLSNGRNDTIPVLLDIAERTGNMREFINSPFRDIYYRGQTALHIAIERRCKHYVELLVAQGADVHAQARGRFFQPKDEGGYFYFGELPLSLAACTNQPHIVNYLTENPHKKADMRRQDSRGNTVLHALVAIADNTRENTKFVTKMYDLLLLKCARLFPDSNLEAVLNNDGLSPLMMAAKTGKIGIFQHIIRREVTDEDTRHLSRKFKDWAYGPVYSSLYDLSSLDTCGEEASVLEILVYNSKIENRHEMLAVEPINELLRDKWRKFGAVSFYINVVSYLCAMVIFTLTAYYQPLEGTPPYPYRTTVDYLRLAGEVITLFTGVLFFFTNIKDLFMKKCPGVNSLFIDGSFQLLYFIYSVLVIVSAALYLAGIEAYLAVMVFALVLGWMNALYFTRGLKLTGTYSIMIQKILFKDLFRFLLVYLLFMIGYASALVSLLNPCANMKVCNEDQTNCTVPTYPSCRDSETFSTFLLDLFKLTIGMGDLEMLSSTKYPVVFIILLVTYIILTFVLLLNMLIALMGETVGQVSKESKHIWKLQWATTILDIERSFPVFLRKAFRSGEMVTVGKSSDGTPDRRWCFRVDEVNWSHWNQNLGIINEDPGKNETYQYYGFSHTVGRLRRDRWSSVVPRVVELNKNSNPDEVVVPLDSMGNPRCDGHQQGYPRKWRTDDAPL
EXPERIMENT_NOTES: Ca2+ measurement in HEK293 cells transfected with TRPV4
pIC50: −log10 of the molar value.

# COMPOUND, pIC50
data = [
    ("O=C(O)Cc1ccccc1Nc1c(Cl)cccc1Cl [Dic, diclofenac]", "< 4.00"),
]

---

SYSTEM_TESTED: TRPM2 (Homo sapiens)
Sequence (O94759 whole entry): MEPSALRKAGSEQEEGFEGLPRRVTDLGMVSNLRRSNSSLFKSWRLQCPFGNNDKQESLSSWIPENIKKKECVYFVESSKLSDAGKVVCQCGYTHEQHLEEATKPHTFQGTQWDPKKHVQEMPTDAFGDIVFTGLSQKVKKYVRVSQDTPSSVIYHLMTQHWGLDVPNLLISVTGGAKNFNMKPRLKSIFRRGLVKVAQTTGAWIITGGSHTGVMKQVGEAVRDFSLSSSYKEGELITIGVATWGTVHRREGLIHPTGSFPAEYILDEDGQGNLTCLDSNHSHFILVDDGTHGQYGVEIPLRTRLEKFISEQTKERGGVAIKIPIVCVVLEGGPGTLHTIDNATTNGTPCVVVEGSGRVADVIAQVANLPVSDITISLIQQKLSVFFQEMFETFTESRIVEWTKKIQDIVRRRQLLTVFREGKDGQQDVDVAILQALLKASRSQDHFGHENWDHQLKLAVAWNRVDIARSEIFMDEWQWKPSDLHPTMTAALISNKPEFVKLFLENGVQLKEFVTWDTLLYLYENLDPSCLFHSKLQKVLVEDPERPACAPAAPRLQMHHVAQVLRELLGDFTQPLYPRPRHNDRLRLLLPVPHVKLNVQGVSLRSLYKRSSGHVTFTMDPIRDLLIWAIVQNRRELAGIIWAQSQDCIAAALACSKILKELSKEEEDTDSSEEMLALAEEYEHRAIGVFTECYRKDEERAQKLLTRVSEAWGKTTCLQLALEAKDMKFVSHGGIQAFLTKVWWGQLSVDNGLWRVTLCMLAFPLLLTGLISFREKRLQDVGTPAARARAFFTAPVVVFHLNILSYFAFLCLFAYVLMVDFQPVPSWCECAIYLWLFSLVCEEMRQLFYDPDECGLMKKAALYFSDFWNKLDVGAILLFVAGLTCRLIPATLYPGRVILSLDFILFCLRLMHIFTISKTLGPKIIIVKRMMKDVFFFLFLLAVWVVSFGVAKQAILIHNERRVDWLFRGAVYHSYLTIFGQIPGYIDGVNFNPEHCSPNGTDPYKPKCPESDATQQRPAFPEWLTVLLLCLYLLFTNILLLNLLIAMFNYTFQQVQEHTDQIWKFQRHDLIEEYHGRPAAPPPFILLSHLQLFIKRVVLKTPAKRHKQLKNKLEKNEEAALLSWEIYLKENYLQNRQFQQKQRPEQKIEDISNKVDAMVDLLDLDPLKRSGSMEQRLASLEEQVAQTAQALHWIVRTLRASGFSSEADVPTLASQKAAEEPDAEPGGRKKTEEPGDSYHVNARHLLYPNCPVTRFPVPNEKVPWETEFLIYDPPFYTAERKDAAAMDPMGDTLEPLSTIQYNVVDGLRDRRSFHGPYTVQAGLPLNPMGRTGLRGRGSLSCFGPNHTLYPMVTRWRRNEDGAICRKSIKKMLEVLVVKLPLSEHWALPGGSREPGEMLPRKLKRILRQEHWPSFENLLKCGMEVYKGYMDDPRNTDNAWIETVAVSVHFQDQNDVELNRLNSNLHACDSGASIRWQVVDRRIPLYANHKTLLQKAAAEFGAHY
EXPERIMENT_NOTES: Ca2+ measurement in HEK293 cells transfected with TRPM2
pIC50: −log10 of the molar value.

# GIVEN_SMILES, pIC50
measured = [
    ("O=C(O)Cc1ccccc1Nc1c(Cl)cccc1Cl", "< 4.00"),
]
